The entries below come with measured Kd values attached.
target: T1, AFP158/HLA-A*02:01 complex (human); test: SPR, scFv captured, pMHC in flow;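 also: complex injected at several concentrations over crude scFv, association then running-buffer dissociation, KD estimated from kinetic on- and off-rate constants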
T1 construct: flowed over the chip in SPR; also called AFP158 pro
measurementType: Kd (nM)

[[record]]
binder = "LH98T (scFv, AS170036 VL1VH1 scFv mutein; also called AS170036 VL1VH1-VLH98T) scFv: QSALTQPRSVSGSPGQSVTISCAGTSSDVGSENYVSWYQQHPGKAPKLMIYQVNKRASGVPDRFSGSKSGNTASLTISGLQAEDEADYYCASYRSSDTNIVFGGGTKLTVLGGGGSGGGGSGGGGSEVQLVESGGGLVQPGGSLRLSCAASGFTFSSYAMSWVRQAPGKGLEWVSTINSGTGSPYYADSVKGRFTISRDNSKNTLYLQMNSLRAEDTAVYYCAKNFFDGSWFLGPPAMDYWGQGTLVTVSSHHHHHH"
measurementtype = "Kd"
displayunit = "nM"
assayvalue = 84

[[record]]
binder = "LY93V (scFv, AS170036 VL1VH1 scFv mutein) scFv: QSALTQPRSVSGSPGQSVTISCAGTSSDVGSENYVSWYQQHPGKAPKLMIYQVNKRASGVPDRFSGSKSGNTASLTISGLQAEDEADYYCASVRSSDHNIVFGGGTKLTVLGGGGSGGGGSGGGGSEVQLVESGGGLVQPGGSLRLSCAASGFTFSSYAMSWVRQAPGKGLEWVSTINSGTGSPYYADSVKGRFTISRDNSKNTLYLQMNSLRAEDTAVYYCAKNFFDGSWFLGPPAMDYWGQGTLVTVSSHHHHHH"
measurementtype = "Kd"
displayunit = "nM"
assayvalue = 450

[[record]]
binder = "LH98M (scFv, AS170036 VL1VH1 scFv mutein) scFv: QSALTQPRSVSGSPGQSVTISCAGTSSDVGSENYVSWYQQHPGKAPKLMIYQVNKRASGVPDRFSGSKSGNTASLTISGLQAEDEADYYCASYRSSDMNIVFGGGTKLTVLGGGGSGGGGSGGGGSEVQLVESGGGLVQPGGSLRLSCAASGFTFSSYAMSWVRQAPGKGLEWVSTINSGTGSPYYADSVKGRFTISRDNSKNTLYLQMNSLRAEDTAVYYCAKNFFDGSWFLGPPAMDYWGQGTLVTVSSHHHHHH"
measurementtype = "Kd"
displayunit = "nM"
assayvalue = 140

